test-target: house fly brain nAChR
procedure-text: nAChR binding in vitro, competitive inhibition of [3H]NMI binding
details: nonirradiated; 1 nM [3H]NMI, house fly head membranes; read-out: Musca domestica in vitro IC50, [3H]NMI
value-type: pIC50
Value format note: pIC50 is -log10 of concentration (mol/L); just state the number.

### Prompt // query pIC50 value for entry `O=[N+]([O-])/N=C1\N(Cc2ccc(Cl)nc2)CCN1Cc1cccc(/N=N/c2cccc(CN3CCN(Cc4ccc(Cl)nc4)/C3=N\[N+](=O)[O-])c2)c1`
### Response 5.94

### Prompt // query pIC50 value for entry `O=[N+]([O-])NC1=NCCN1Cc1ccc(Cl)nc1`
### Response 7.54

### Prompt // query pIC50 value for entry `O=[N+]([O-])/N=C1\N(Cc2ccc(Cl)nc2)CCN1Cc1cccc(/N=N/c2ccccc2)c1`
### Response 6.60

### Prompt // query pIC50 value for entry `O=[N+]([O-])/N=C1/N(Cc2ccc(/N=N/c3ccccc3)cc2)CCN1Cc1ccc(Cl)nc1`
### Response 6.09

### Prompt // query pIC50 value for entry `O=[N+]([O-])N=C1N(Cc2ccc(N=Nc3ccc(CN4CCN(Cc5ccc(Cl)nc5)C4=N[N+](=O)[O-])cc3)cc2)CCN1Cc1ccc(Cl)nc1`
### Response 6.33
